Cited source: patent US11731977B2

Molecular target: sGC enzyme (Homo sapiens, UniProt Q02108+Q02153)
Construct: sGC enzyme activity values in HEK cells, determined by the GloSensor assay; host or cells: HEK293 cells stably expressing GloSensor 40F cGMP biosensor
Sequence (Q02153 1-619): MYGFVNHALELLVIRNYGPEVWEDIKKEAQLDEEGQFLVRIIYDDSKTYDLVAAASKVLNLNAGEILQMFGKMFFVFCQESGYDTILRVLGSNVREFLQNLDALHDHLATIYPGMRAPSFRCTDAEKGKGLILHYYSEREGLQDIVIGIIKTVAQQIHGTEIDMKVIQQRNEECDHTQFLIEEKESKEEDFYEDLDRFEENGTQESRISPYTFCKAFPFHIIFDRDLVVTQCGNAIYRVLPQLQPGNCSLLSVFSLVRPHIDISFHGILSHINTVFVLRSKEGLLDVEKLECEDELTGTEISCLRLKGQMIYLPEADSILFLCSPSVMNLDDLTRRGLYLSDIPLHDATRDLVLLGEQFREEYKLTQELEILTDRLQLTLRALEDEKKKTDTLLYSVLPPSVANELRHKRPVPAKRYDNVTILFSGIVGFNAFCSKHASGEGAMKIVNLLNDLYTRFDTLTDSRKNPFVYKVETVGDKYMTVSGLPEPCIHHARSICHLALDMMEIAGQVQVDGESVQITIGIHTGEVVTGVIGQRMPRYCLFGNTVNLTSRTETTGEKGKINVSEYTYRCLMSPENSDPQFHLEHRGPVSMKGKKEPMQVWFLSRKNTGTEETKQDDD
Sequence (Q02108 1-690): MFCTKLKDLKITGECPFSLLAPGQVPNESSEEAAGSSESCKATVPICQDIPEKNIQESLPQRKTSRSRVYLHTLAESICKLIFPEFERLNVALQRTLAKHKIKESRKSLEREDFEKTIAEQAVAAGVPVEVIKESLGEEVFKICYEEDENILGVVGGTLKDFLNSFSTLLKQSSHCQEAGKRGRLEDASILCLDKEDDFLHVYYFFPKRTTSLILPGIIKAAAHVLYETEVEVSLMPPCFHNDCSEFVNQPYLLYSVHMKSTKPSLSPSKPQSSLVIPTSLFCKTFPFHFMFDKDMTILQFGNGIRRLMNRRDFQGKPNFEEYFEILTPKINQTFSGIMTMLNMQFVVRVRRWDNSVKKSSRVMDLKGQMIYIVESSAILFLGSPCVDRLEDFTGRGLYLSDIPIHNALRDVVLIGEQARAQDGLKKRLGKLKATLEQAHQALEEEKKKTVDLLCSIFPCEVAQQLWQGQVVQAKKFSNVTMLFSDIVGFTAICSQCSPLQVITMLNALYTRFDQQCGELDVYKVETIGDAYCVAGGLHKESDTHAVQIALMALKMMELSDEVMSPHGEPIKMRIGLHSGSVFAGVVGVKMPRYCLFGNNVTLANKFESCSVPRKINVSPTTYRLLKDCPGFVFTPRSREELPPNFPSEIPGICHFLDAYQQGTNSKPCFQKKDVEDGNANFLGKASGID
Experiment: cGMP GloSensor cell-based assay, synergy with NO at varied DETA-NO (Example 2b)
Details: [DETA-NO] 1.11 uM; HEK293 GloSensor cells; read-out: EC50 (Absolute EC50)
pEC50: −log10 of the molar value.
quantity: pEC50

1) Fc1ccccc1Cc1nc(-c2nc(C(F)(F)F)n[nH]2)cn2ccnc12 [Compound I-1]; 6.00 to 7.00
